Data origin, for the record: paper PMC3154423

molecular target: Jun bZIP R261A;Fos bZIP R144A (human;human, UniProt P05412;P01100 252-315;137-200, R261A|R144A); test: ITC
Sequence (P05412 252-315 R261A, chain 1 of 2): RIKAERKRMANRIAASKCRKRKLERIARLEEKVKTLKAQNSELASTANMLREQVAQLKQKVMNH
Sequence (P01100 137-200 R144A, chain 2 of 2): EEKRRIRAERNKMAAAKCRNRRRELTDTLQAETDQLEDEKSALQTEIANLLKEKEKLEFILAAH
pKd: −log10 of the molar value.
measured-property: pKd

{"columns": ["binder", "measured-result"],
 "data": [
  ["TRE duplex 15-mer (dsDNA) DNA 1: CGCGTGACTCACCCC DNA 2: GGGGTGAGTCACGCG", 5.74]
]}
